test system: Trichophyton mentagrophytes; assay: Antifungal activity against Trichophyton mentagrophytes after 7 days by broth microdilution method; type: functional; settings: 168 h
PROPERTY: MIC50 (µg/mL)
Write it as a number; the unit µg/mL goes unstated.

Need MIC50 of `C[C@H](c1cccc2ccccc12)N(C)Cc1ccc([N+](=O)[O-])cc1` , thanks.
1

So what does the record say about MIC50 for `C[C@H](c1cccc2ccccc12)N(C)Cc1ccc(C(C)(C)C)cc1` ?
0.06

May I ask what MIC50 has been recorded for `CN(Cc1ccc(C(C)(C)C)cc1)Cc1cccc2ccccc12` ?
0.06

Quick one: MIC50 of `C[C@H](c1cccc2ccccc12)N(C)Cc1ccc(Br)cc1` ?
0.25

# input molecule: `C[C@@H]1[C@H](O)[C@@H](C)/C=C/C=C/C=C/C=C/C=C/C=C/C=C/[C@H](O[C@@H]2O[C@H](C)[C@@H](O)[C@H](N)[C@@H]2O)C[C@@H]2O[C@](O)(C[C@@H](O)C[C@@H](O)[C@H](O)CC[C@@H](O)C[C@@H](O)CC(=O)O[C@H]1C)C[C@H](O)[C@H]2C(=O)O` ; wanted: its MIC50
0.5

Suppose we examine the molecule `CC(C)(C)c1ccc([C@H](CF)NCc2cccc3ccccc23)cc1` ; what MIC50 value has been reported?
2

Could you share which MIC50 value was measured for `Cc1ccc(CN(C)[C@H](C)c2cccc3ccccc23)cc1` ?
0.25
